Tested on: Trypanosoma brucei
PROTOCOL DESCRIPTION: Trypanosoma brucei 72 hour study
Format: functional, organism-based
Parameters: scale not given: in the data most compounds retested in dose-response had high values
CONDITION LABEL: 30.3 µM; […]
Out of some 66,000 compounds screened, about 960 (1.5%) showed an effect of 50% or more. The entries come from a sample that favours strong results as a whole.
Please note: condition met applies when Percent Effect is -20% or greater, and condition not met applies otherwise.

MOLECULE | CLASS LABEL
CCCc1nc(NCCCn2cccn2)c2c(n1)c(C)nn2CC | condition met
CCOC(=O)C1(CCOC)CCN(Cc2nccn2CC)CC1 | condition met
CCc1nc(NCCCn2cccn2)c2c(n1)c(C)nn2CC | condition met
Cc1ccc(CNCC2CCN(CC(O)c3ccccc3)CC2)o1 (configuration not stated) | condition met
CCS(=O)(=O)N1CCCC(Cc2cnccn2)C1 (configuration not stated) | condition not met
O=C(c1cc(C2CCCCN2CCO)n[nH]1)N1CCOCC1.O=CO (configuration not stated) | condition met

----------
Test system: Trypanosoma brucei
PROTOCOL DESCRIPTION: Trypanosoma brucei 72 hour study
Type: functional, organism-based
Design: scale not given: in the data most compounds retested in dose-response had high values
CONDITION LABEL: 30.3 µM; […]
Hit rate of the full screen: of about 66,000 compounds, about 960 (1.5%) showed an effect of 50% or more. This is one part of a sample in which strong results are shown more often than they occur.
REPORTED METRIC: Percent Effect

MOLECULE | REPORTED METRIC | RESULT
CC(=O)N1CCCC(c2ccc(Br)cn2)C1 (stereo not given) | Percent Effect | 11.45%
Cl.c1nn(C2CCCCC2)cc1-c1cncn1CCCN1CCCCC1 | Percent Effect | -11.05%
Cc1ccc(CN2CCC3(CC2)CN(C(=O)c2cnccn2)CCO3)o1.O=C(O)C(F)(F)F | Percent Effect | -12.58%
CC1CCCN(CCNC(=O)c2ccn(-c3ccc(F)cc3)n2)C1 (stereo not given) | Percent Effect | 63.43%
COc1ccccc1CN1CCC(c2nn(CCN)c3nccnc23)C1 (stereo not given) | Percent Effect | 99.59%
O=C(CN1CCSC2(CCCCC2)C1)NCC(F)(F)F | Percent Effect | 27.46%
Cc1ccnc(NC(=O)c2[nH]nc(C(C)C)c2Br)c1 | Percent Effect | 57.19%
CN(C)CCN1CCC2(CCN(C(=O)c3ccc(F)cc3)CC2)C1=O.O=C(O)C(F)(F)F | Percent Effect | -18.87%
O=C(CN1CCC2(CCCCC2)C1)NCC(F)(F)F | Percent Effect | 100.3%
CN1C(=O)CC[C@]12CC[C@@H](NCc1ccsc1)CC2.O=C(O)C(F)(F)F | Percent Effect | 8.729%
CC(C)c1cn(CC(=O)NC2CC(=O)N(CCc3ccccc3)C2)nn1 (stereo not given) | Percent Effect | -9.844%
Cc1nc(CC2CCN(Cc3ccc(CCC(C)(C)O)cc3)CC2)no1 | Percent Effect | -0.2557%
CC(CO)NC(=O)c1ccc(NCc2ccc(F)c(F)c2)cc1 (stereo not given) | Percent Effect | 74.6%
CC(=O)N1CCCC(c2ccccn2)C1 (stereo not given) | Percent Effect | -37.51%
COCC(=O)NC[C@]12COC[C@H]1CN(Cc1ccc3c(c1)OCO3)C2.O=C(O)C(F)(F)F | Percent Effect | 5.113%
Cc1ccccc1CN1CCC(c2nn(CCN)c3nccnc23)C1 (stereo not given) | Percent Effect | 24.84%
Cc1ccc(N2CCC(c3cc(Cc4ccccc4)n[nH]3)CC2)nn1 | Percent Effect | -45.15%
O=C(NC1CC1)[C@H]1C[C@H]2OCC[C@H]2N(Cc2ccc3ccccc3n2)C1.O=C(O)C(F)(F)F.O=C(O)C(F)(F)F | Percent Effect | -259.7%
CC1CCCN(CCNC(=O)c2ccn(-c3cccc(F)c3)n2)C1 (stereo not given) | Percent Effect | 1.994%
CC(C)c1n[nH]c(C(=O)Nc2ccccn2)c1Br | Percent Effect | 50.04%
CS(=O)(=O)N1CCO[C@@H]2CCN(Cc3ccncc3)CC[C@H]21.O=C(O)C(F)(F)F.O=C(O)C(F)(F)F | Percent Effect | -50.12%
CC(CNC(=O)c1ccc(C#N)cc1)N1CCc2ccccc21 (stereo not given) | Percent Effect | 1.685%
CN1CC[C@]2(CN(CC3CCOCC3)C[C@H]2c2ccccc2)C1=O.O=C(O)C(F)(F)F | Percent Effect | -1.885%
Cc1ccsc1C(=O)N1CCCC(c2[nH]ncc2S(C)(=O)=O)C1 (stereo not given) | Percent Effect | -15.29%
CC(C)c1n[nH]c(C(=O)NC(C)c2ccncc2)c1Br (stereo not given) | Percent Effect | 20.51%

----------
Tested on: Trypanosoma brucei
PROTOCOL DESCRIPTION: Trypanosoma brucei 72 hour study
Type: functional, organism-based
Design: scale not given: in the data most compounds retested in dose-response had high values
CONDITION LABEL: 30.3 µM; […]
Screen size: about 66,000 compounds; about 960 (1.5%) showed an effect of 50% or more. For the sample, strong results were picked, then their nearest neighbours and some compounds at random.
Consider the following compounds and their measured Percent Effect readings.
REPORTED METRIC: Percent Effect (%)

COMPOUND | REPORTED METRIC | READING UNIT | QUANTITATIVE RESULT
N#CCc1cccc(C(=O)N2CCN(CC(O)c3ccccc3)CC2)c1 (stereo not given) | Percent Effect | % | 6.868
Cn1cccc1C(=O)N1CCC2(CCN(C(=O)c3cccnc3)C2)CC1.O=C(O)C(F)(F)F | Percent Effect | % | -55.95
COCCN1CCC(CNC(=O)C2(c3ccccc3)CCOCC2)C1 (stereo not given) | Percent Effect | % | -10.94
CCn1ncc(CN2CCCC(n3c(=O)oc4ccccc43)C2)c1C.Cl (stereo not given) | Percent Effect | % | 17.06
Cc1ncc(CN2CCc3c(nc(-c4ccccn4)[nH]c3=O)C2)n1C | Percent Effect | % | 9.769
Cc1ncc2c(n1)C1(CCN(C(=O)C(C)C)CC1)OCC2.Cl | Percent Effect | % | -4.848
N#CCCN(CC1CCCO1)C(=O)c1ccsc1 (stereo not given) | Percent Effect | % | 16.66
O=C(Nc1cccc(F)c1)NC1CCN(Cc2ccncc2)CC1 | Percent Effect | % | -25.17
COC1CN(C(=O)Nc2ccccc2)CCC(=O)N(C)c2ccccc21 (stereo not given) | Percent Effect | % | -31.75
CCOCCNc1nc(-c2ccncc2)nc2c1CCNCC2 | Percent Effect | % | -307.1

----------
System: Trypanosoma brucei
PROTOCOL DESCRIPTION: Trypanosoma brucei 72 hour study
Format: functional, organism-based
Set-up: scale not given: in the data most compounds retested in dose-response had high values
CONDITION LABEL: 30 µM; 30.03 µM
Hit rate of the full screen: of about 66,000 compounds, about 960 (1.5%) showed an effect of 50% or more. Only a selection was taken, and strong results are over-represented in it overall.
Decision: Percent Effect >= -40% yields 1 (yes), all other cases yield 0 (no).

COMPOUND | CLASS LABEL
CC(=O)N1CCCn2nc(CNC(=O)N3CCCCC3)cc2C1 | 0 (no)
CC(C)Nc1ccnc(N2Cc3cnc(C(C)(C)C)nc3C2)n1 | 0 (no)
O=C(O)C(F)(F)F.O=C(O)C(F)(F)F.c1csc(CN2CCOCC3(CCN(C4CCOCC4)C3)C2)c1 (configuration not stated) | 1 (yes)
Fc1cccc(CN2CCOCC3(CCN(C4CCOCC4)C3)C2)c1.O=C(O)C(F)(F)F.O=C(O)C(F)(F)F (configuration not stated) | 1 (yes)
O=C(Cn1ccc2sccc2c1=O)NCc1ccccc1F | 1 (yes)
CCNc1ccnc(N2Cc3cnc(CC(C)C)nc3C2)n1 | 1 (yes)
COc1ccc2c(c1)OCC(C(=O)NCc1nc3c(s1)CCCC3)C2 (configuration not stated) | 0 (no)

----------
Tested on: Trypanosoma brucei
PROTOCOL DESCRIPTION: Trypanosoma brucei 72 hour study
Type: functional, organism-based
Parameters: scale not given: in the data most compounds retested in dose-response had high values
CONDITION LABEL: 30.3 µM; […]
Out of some 66,000 compounds screened, about 960 (1.5%) showed an effect of 50% or more. The sample as a whole holds a higher share of strong results than the screen did.
Assign labels as follows, please: condition met for Percent Effect below 20%; condition not met for Percent Effect equal to or exceeding 20%.

COMPOUND | SYSTEM TESTED | CLASS LABEL
c1cnc(N2CCCC(c3csc(Nc4cnccn4)n3)C2)nc1 (centres undefined) | Trypanosoma brucei | condition not met
Cc1nc(C)n(CC2CCCN2Cc2ncc(C(C)(C)C)o2)n1 (centres undefined) | Trypanosoma brucei | condition not met
CN1CCCC[C@@H]2[C@H]1[C@@H](c1ccccc1)CCN2C(=O)c1cccnc1 | Trypanosoma brucei | condition met
CN1CC[C@H](N(Cc2ccccc2)Cc2ccccc2)C[C@H](O)C1 | Trypanosoma brucei | condition not met
CCC(=O)N1CCCC1c1csc(Nc2cnccn2)n1 (centres undefined) | Trypanosoma brucei | condition not met
Cc1ccc(CN2CCc3onc(C(=O)N4CCCC4)c3C2)o1.O=C(O)C(F)(F)F | Trypanosoma brucei | condition met
CCS(=O)(=O)CC(=O)NC(C)c1ccc(F)cc1F (centres undefined) | Trypanosoma brucei | condition met
Cl.N#Cc1ccc(CNCC2(c3ccccc3)CCOCC2)cc1 | Trypanosoma brucei | condition not met
